From: PubChem BioAssay (NCI)

- Test system: SK-OV-3 ovarian
- Procedure text: NCI tumour cell line growth inhibition, 48 h
Catalogue of GI50 readings, one per entry.

Some solved entries appear below for comparison.
Line notation: O=C(Cc1ccc(F)c(F)c1)Nc1cc(C2(C(F)(F)F)CC2)nn1Cc1ccccc1
GI50: 3.56 µM
//
Line notation: CN(Cc1ccccc1)c1ccc(CO)c(Cl)c1
GI50: 8.99 µM
//
Line notation: c1ccc(CN2COc3c(ccc4c3OCN(Cc3ccccc3)C4)C2)cc1
GI50: 0.639 µM
//
Line notation: COCc1cc(C(=O)Nc2cc([C@H]3CC[C@@H](OC(=O)NC(C)C)C3)[nH]n2)n(C)n1
GI50: 28.6 µM
//
Line notation: Cc1csc(/C=C/C(=O)c2nnn(-c3ccnc4c(C(F)(F)F)cccc34)c2C)c1
GI50: 89.1 µM

# get_value(readout='GI50', item= COC(=O)c1cc(O)c2cc3c(cc2c1-c1cc(OC)c(OC)c(OC)c1)OCO3 )
3.02 µM

Then this compound: O=C(COc1cc(O)c2c(=O)cc(-c3ccccc3)oc2c1)Nc1ccccc1C(F)(F)F
14.9 µM
